target.desc: T1, 4H2931-AA
T1 chain: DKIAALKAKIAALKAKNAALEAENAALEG
assay.info: two-hybrid library CCmax;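 further: natural log of median RNA to DNA barcode read ratio; higher means stronger binding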
assay.setup: mean of both orientations
quantity.measured: interaction score

Field: example entries. Status: answers known.
binder: DENAALKAKIAALEAKIAALEAENAALKG [4H1828-AA]
interaction score: -2.02
//
binder: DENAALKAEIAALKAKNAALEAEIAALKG [4H1650-AA]
interaction score: -1.59
//
binder: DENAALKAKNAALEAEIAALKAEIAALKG [4H1930-AA]
interaction score: -1.91
//
binder: DKIAALEAKIAALEAKIAALEAKNAALEG [4H2343-AA]
interaction score: -1.61
//
binder: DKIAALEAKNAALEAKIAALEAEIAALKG [4H2466-AA]
interaction score: -1.81
//
binder: DEIAALEAENAALEAKIAALKAKNAALEG [4H175-AA]
interaction score: -1.11
//
binder: DKIAALKAENAALEAKIAALKAENAALKG [4H2732-AA]
interaction score: -1.81
//
binder: DKIAALEAEIAALKAEIAALKAENAALKG [4H2124-AA]
interaction score: -1.45

P: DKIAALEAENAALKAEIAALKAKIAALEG [4H2253-AA]
Q: DKIAALKAEIAALEAENAALKAKNAALKG [4H2592-AA]
Q. // which entry reports the smaller interaction score, P or Q ? Pick one and reply with its label.
A. P
